Hey, just so you know, these numbers are from ChEMBL document CHEMBL1149625.

- procedure_text: physchem
- measurement_conditions: aqueous, pH 6.5, Solubility
Hi, to clarify the labels: Condition met covers solubility from 50 µg/mL upward, Condition not met covers anything below 50 µg/mL.

| compound | label |
| --- | --- |
| CCc1nc(N)nc(N)c1-c1ccc2c(c1)N(CCNS(C)(=O)=O)C(=O)C(C)(c1cc(F)cc(F)c1)O2 (configuration not stated) | Condition met |
| CCc1nc(N)nc(N)c1-c1ccc2c(c1)N(CCCOC(F)(F)F)C(=O)C(C)(c1cc(F)cc(F)c1)O2 (configuration not stated) | Condition not met |
| CCc1nc(N)nc(N)c1-c1ccc2c(c1)N(CCCC#N)C(=O)C(C)(c1cc(F)cc(F)c1)O2 (configuration not stated) | Condition not met |
| CCc1nc(N)nc(N)c1-c1ccc2c(c1)N(CCCOC)C(=O)C(C)(CC)O2 (configuration not stated) | Condition met |
| CCc1nc(N)nc(N)c1-c1ccc2c(c1)N(CCNC(C)=O)C(=O)C(C)(c1ccc(Cl)cc1)O2 (racemic) | Condition not met |
| CCNC(=O)CN1C(=O)C(C)(c2cc(F)cc(F)c2)Oc2ccc(-c3c(N)nc(N)nc3CC)cc21 (configuration not stated) | Condition met |
| CCc1nc(N)nc(N)c1-c1ccc2c(c1)N(CCNC(C)=O)C(=O)C(C)(c1cc(F)cc(F)c1)O2 (stereo in doubt; 26) | Condition met |

###

# maps each entry to its solubility
- procedure_text: physchem
- measurement_conditions: aqueous, pH 6.5, Solubility

| compound | solubility |
| --- | --- |
| CCc1nc(N)nc(N)c1-c1ccc2c(c1)N(CCO)C(=O)C(C)(c1cc(F)cc(F)c1)O2 (stereo unspecified) | 89 µg/mL |
| CCc1nc(N)nc(N)c1-c1ccc2c(c1)N(CCNC(C)=O)C(=O)C(C)(c1cc(F)ccc1F)O2 (racemic) | 2.3 µg/mL |
| CCc1nc(N)nc(N)c1-c1ccc2c(c1)N(CCNC(C)=O)C(=O)C(C)(C(F)(F)F)O2 (stereo unspecified) | 200 µg/mL |
| CCc1nc(N)nc(N)c1-c1ccc2c(c1)N(CCNC(=O)CO)C(=O)C(C)(c1cc(F)cc(F)c1)O2 (stereo unspecified) | 59 µg/mL |
| CCc1nc(N)nc(N)c1-c1ccc2c(c1)N(CCCOC)C(=O)C(C)(c1cc(F)cc(F)c1)O2 (stereo in doubt; 25) | 87 µg/mL |
| CCc1nc(N)nc(N)c1-c1ccc2c(c1)N(CCCOC)C(=O)C(C)(C)O2 | 34 µg/mL |
